System: MOLM14 F691L cells
EXPERIMENT_DESCRIPTION: MOLM14 F691L cell viability assay (Cell Titer Glo)
Assay type: cell-based
CONDITION_DETAILS: Homo sapiens, MOLM-14; cell viability, Cell Titer Glo, 48 hours; read-out: MOLM14 F691L IC50
Please provide measured pIC50 for the entries that follow.
Numbers only, as −log10 of the molar value.

Solved entries:
INSERT INTO assay_data (molecule, assay_result) VALUES
  ('COc1cc2ncc(-c3nc(N[C@H]4CNCC[C@@H]4F)ncc3F)n2nc1[C@H]1C[C@H](O)C1 [Compound 125a]', 7.80),
  ('COc1cc2ncc(-c3nc(N[C@H]4CNCC[C@@H]4F)ncc3F)n2nc1C1CCC1 [Compound 54a]', 8.15),
  ('COc1cc2ncc(-c3nc(N[C@H]4CNCC[C@@H]4F)ncc3F)n2nc1N1CCCS1(=O)=O [Compound 112a]', 7.64),
  ('COc1cc2ncc(-c3nc(N[C@H]4CNCC[C@@H]4F)ncc3F)n2nc1C1CCCC1 [Compound 63a]', 7.89),
  ('COc1cc2ncc(-c3nc(N[C@H]4CNC[C@@H]4F)ncc3F)n2nc1N1CCS(=O)(=O)CC1 [Compound 123a]', 6.00);

# batch size: 3; output pIC50 per entry
1. COc1cc2ncc(-c3ccnc(N[C@H]4CNCC[C@@H]4F)n3)n2nc1C1CCCC1 [Compound 85a]
2. COc1cc2ncc(-c3ccnc(N[C@@H]4CCCNC4)n3)n2nc1C1CCCCC1 [Compound 87a]
3. F[C@H]1CCNC[C@@H]1Nc1nccc(-c2cnc3cc(OC4CC4)c(C4CC4)nn23)n1 [Compound 12a]

Output:
7.05
6.60
7.00

---

EXPERIMENTAL_SYSTEM: UniProt P51617
Sequence (P51617 whole entry): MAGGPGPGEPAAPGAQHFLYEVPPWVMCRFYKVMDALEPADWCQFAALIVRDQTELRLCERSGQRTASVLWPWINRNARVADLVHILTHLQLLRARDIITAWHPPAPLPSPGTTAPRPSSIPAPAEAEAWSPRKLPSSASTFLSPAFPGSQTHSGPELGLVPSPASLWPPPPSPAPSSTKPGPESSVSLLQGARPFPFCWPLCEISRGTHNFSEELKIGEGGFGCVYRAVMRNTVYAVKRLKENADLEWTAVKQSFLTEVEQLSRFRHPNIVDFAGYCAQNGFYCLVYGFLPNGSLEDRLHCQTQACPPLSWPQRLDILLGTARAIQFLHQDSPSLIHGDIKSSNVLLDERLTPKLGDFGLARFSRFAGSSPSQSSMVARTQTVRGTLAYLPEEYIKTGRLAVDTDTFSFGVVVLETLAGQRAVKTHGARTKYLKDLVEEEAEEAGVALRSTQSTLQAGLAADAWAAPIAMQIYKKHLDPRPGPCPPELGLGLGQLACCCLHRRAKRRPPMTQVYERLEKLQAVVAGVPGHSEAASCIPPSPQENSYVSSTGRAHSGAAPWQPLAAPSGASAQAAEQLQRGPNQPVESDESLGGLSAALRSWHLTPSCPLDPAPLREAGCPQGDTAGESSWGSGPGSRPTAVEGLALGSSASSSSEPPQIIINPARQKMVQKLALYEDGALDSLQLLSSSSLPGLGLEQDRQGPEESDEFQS
EXPERIMENT_DESCRIPTION: RBC HotSpot Kinase Assay, IRAK1
CONDITION_DETAILS: isolated kinase enzyme, 33P-ATP, P81 filter-binding
Excerpt: This assay uses the isolated kinase enzyme. […] Unlike kinase binding assays that measure competition for ATP, the HotSpot Kinase Assay is a functional assay that measures catalytic activity; as such it measures relative functional potency regardless of the mechanism of enzyme inhibition. This assay uses the form of the various enzymes that are easiest to express, which may not necessarily be the form of the enzyme that exist in the cell. […]
MEASURED_QUANTITY: IC50 (nM)
Give bare numbers, in nM.

Solved entries:
INSERT INTO assay_data (compound, experimental_system, measured_quantity, assay_result) VALUES
  ('COc1cc2ncc(-c3ccnc(N[C@H]4CNC[C@@H]4F)n3)n2nc1C1COC1 [Compound 95a]', 'UniProt P51617', 'IC50', 300),
  ('COc1cc2ncc(-c3nc(N[C@H]4CNCC[C@@H]4F)ncc3F)n2nc1C1CC(F)(F)C1 [Compound 49a]', 'UniProt P51617', 'IC50', 2),
  ('CC(O)(c1ccc2ncc(-c3cncc(N[C@H]4CNC[C@@H]4F)n3)n2c1)C(F)(F)F (single isomer, unassigned) [Compound 32a]', 'UniProt P51617', 'IC50', 53),
  ('CC(O)(c1ccc2ncc(-c3nc(N[C@H]4CNC[C@@H]4F)ncc3F)n2c1)C(F)(F)F (single isomer, unassigned) [Compound 38a]', 'UniProt P51617', 'IC50', 1),
  ('C[C@@](O)(c1ccc2ncc(-c3ccnc(N[C@H]4CNCC[C@@H]4F)n3)n2c1)C(F)(F)F (single isomer, unassigned) [Compound 27a]', 'UniProt P51617', 'IC50', 4),
  ('COc1cc2ncc(-c3nc(N[C@H]4CNC[C@@H]4F)ncc3F)n2nc1C1CC1 [Compound 2a]', 'UniProt P51617', 'IC50', 1);

Task: # return recorded IC50 for entry CC(O)(c1ccc2ncc(-c3ccnc(N[C@H]4CNC[C@@H]4F)n3)n2c1)C(F)(F)F (single isomer, unassigned) [Compound 26a]
Output: 5

Hello, the source for this data is patent US20260226048A1, in case you need it.
